Test system: SKBR3-P
assay.procedure: area under growth-rate inhibition curve (AUC GRI) (dimensionless (GR-based AUC)); higher = less growth inhibition
recorded.conditions: exposure time: 72 h; concentrations: 0.1, 1, 10 uM
area under growth-rate inhibition curve below 1 gives false (0); area under growth-rate inhibition curve at or above it gives true (1).

| molecule | assay.system | assigned.class |
| --- | --- | --- |
| CN/C(=C\[N+](=O)[O-])NCCSCc1ccc(CN(C)C)o1 [Ranitidine] | SKBR3-P | true (1) |
| OC(CNCC(O)C1CCc2cc(F)ccc2O1)C1CCc2cc(F)ccc2O1.[Cl-].[H+] (stereo not drawn) [Nebivolol] | SKBR3-P | false (0) |
| C[C@]12CC[C@@H]3c4ccc(O)cc4C[C@@H](CCCCCCCCCS(=O)CCCC(F)(F)C(F)(F)F)[C@H]3[C@@H]1CC[C@@H]2O (stereo partly drawn) [Fulvestrant] | SKBR3-P | false (0) |
| C[N+](C)(C)CCCCCCCCCC[N+](C)(C)C.[Br-].[Br-] [Decamethonium Bromide] | SKBR3-P | true (1) |
| CNCc1ccc(C)c(NC(=O)c2ccc(Nc3nc(-c4ccccc4)c4ccccc4n3)cc2)c1 | SKBR3-P | false (0) |
| CCCC(=O)O[C@]1(C(=O)COC(C)=O)CC[C@H]2[C@@H]3C[C@H](F)C4=CC(=O)C=C[C@]4(C)[C@@]3(F)[C@@H](O)C[C@@]21C [Difluprednate] | SKBR3-P | false (0) |

* * *

Tested on: SKBR3-P
assay.procedure: area under growth-rate inhibition curve (AUC GRI) (dimensionless (GR-based AUC)); higher = less growth inhibition
recorded.conditions: exposure time: 72 h; concentrations: 0.1, 1, 10 uM
Consider the following molecules and their measured area under growth-rate inhibition curve readings.

| molecule | area under growth-rate inhibition curve |
| --- | --- |
| Br.CN1C2CC(OC(=O)C(CO)c3ccccc3)CC1C1OC12 (configuration not stated) | 1.01 |
| Cc1nccn1CC1CCc2c(c3ccccc3n2C)C1=O.[Cl-].[H+] (configuration not stated) [Ondansetron HCl] | 1.03 |
| CN(C)CCC=C1c2ccccc2CCc2ccccc21.Cl [Amitriptyline HCl] | 0.983 |
| C[C@@H](NCCCc1cccc(C(F)(F)F)c1)c1cccc2ccccc12.[Cl-].[H+] [Cinacalcet HCl] | 0.909 |
| CCC(c1cccc(O)c1)C(C)CN(C)C (configuration not stated) | 1.01 |
| O=C(O)c1cccnc1Nc1cccc(C(F)(F)F)c1 | 1.01 |
| CN(C)CC/C=C1\c2ccccc2COc2ccc(CC(=O)O)cc21.Cl [Olopatadine HCl] | 1.02 |
| CCC(=C(c1ccc(O)cc1)c1ccc(OCCN(C)C)cc1)c1ccccc1 [4-hydroxytamoxifen] | 0.979 |
| COc1cc2nc(N3CCN(C(=O)C4CCCO4)CC3)nc(N)c2cc1OC.[Cl-].[H+] (configuration not stated) | 1.03 |
| Oc1c(Cl)cc(Cl)cc1Sc1cc(Cl)cc(Cl)c1O | 1.01 |
| CN1CC2c3ccccc3Oc3ccc(Cl)cc3C2C1.O=C(O)C=CC(=O)O (configuration not stated) | 0.975 |
| S=C=Nc1cccc(NC(=S)NCCCCNC(=S)Nc2cccc(N=C=S)c2)c1 | 1.02 |
| N=C(N)NCCC[C@@H](NC(=O)[C@@H]1CCCN1C(=O)[C@@H]1CSSCCC(=O)N[C@@H](Cc2ccc(O)cc2)C(=O)N[C@@H](Cc2ccccc2)C(=O)N[C@@H](CCC(N)=O)C(=O)N[C@@H](CC(N)=O)C(=O)N1)C(=O)NCC(N)=O | 1.02 |
| C[NH+](C)CCCN1c2ccccc2Sc2ccc(Cl)cc21.[Cl-] [Chlorpromazine Hydrochloride] | 0.994 |
| NCC1(CC(=O)O)CCCCC1 | 1.03 |
| CCN(CC)C(=O)c1ccc(C2=CC3(CCNCC3)Oc3cccc(O)c32)cc1.Cl [ADL5859 HCl] | 1.03 |
| CN[C@@H]1CC[C@@H](c2ccc(Cl)c(Cl)c2)c2ccccc21.[Cl-].[H+] [Sertraline HCl] | 0.963 |

* * *

Test system: SKBR3-P
assay.procedure: area under growth-rate inhibition curve (AUC GRI) (dimensionless (GR-based AUC)); higher = less growth inhibition
recorded.conditions: exposure time: 72 h; concentrations: 0.1, 1, 10 uM
Output TRUE for area under growth-rate inhibition curve not less than 1; output FALSE otherwise.

| compound | assigned.class |
| --- | --- |
| CCCN1CCO[C@H]2c3cc(O)ccc3OC[C@@H]21 | TRUE |
| CN(C)CC/C=C1/c2ccccc2Sc2ccc(Cl)cc21 | FALSE |
| CN1CCCC(n2nc(Cc3ccc(Cl)cc3)c3ccccc3c2=O)CC1.[Cl-].[H+] (centres undefined) [Azelastine HCl] | FALSE |

* * *

System: SKBR3-P
assay.procedure: area under growth-rate inhibition curve (AUC GRI) (dimensionless (GR-based AUC)); higher = less growth inhibition
recorded.conditions: exposure time: 72 h; concentrations: 0.1, 1, 10 uM
Quick rule for you: area under growth-rate inhibition curve at 1 or higher means Satisfied, lower means Not satisfied.

| compound | assay.system | assigned.class |
| --- | --- | --- |
| CS(=O)(=O)c1ccc(C(=O)Nc2ccc(Cl)c(-c3ccccn3)c2)c(Cl)c1 | SKBR3-P | Satisfied |
| CCCCCCCCc1ccc(CCC(N)(CO)CO)cc1.Cl [Fingolimod (FTY720) HCl] | SKBR3-P | Not satisfied |
| CC(C)c1cc(-c2ccc(F)c3ccccc23)nc(N)n1 | SKBR3-P | Satisfied |
| c1nc2nc(Nc3ccc(N4CCOCC4)cc3)nc(NC3CCCCC3)c2[nH]1 | SKBR3-P | Not satisfied |
| O=C(O)c1ccc2ccccc2c1O.OCc1cc(C(O)CNCCCCCCOCCCCc2ccccc2)ccc1O (centres undefined) [Salmeterol Xinafoate] | SKBR3-P | Not satisfied |
| Cc1nn(-c2ccccc2)c(C)c1C=NN1CCN(Cc2ccccc2)CC1 | SKBR3-P | Satisfied |
| CC1=C(C(=O)OC2CCCCC2)C(c2ccc([N+](=O)[O-])cc2)C2=C(CC(C)(C)CC2=O)N1 (centres undefined) | SKBR3-P | Not satisfied |
| Cc1c(-c2ccc(O)cc2)n(Cc2ccc(OCCN3CCCCCC3)cc2)c2ccc(O)cc12.[Cl-].[H+] [Bazedoxifene HCl] | SKBR3-P | Not satisfied |

* * *

Reported area under growth-rate inhibition curve values for a set of molecules
System: SKBR3-P
assay.procedure: area under growth-rate inhibition curve (AUC GRI) (dimensionless (GR-based AUC)); higher = less growth inhibition
recorded.conditions: exposure time: 72 h; concentrations: 0.1, 1, 10 uM
reported.property: area under growth-rate inhibition curve

| molecule | assay.value |
| --- | --- |
| C=CCC1(O)CCC2C3CCC4=CC(=O)CCC4=C3C=CC21C (stereo not drawn) [Altrenogest] | 1.04 |
| NCCc1ccc(O)c(O)c1.[Cl-].[H+] [Dopamine HCl] | 1.02 |
| CC(C)NCC(O)COc1cccc2ccccc12.[Cl-].[H+] (stereo not drawn) [Propranolol HCl] | 1.01 |
| O=C1CC2(CCCC2)CC(=O)N1CCCCN1CCN(c2ncccn2)CC1.[Cl-].[H+] [Buspirone hydrochloride] | 1.01 |
| COc1ccccc1N1CCN(CCN2C(=O)CC3(CCCC3)CC2=O)CC1.[Cl-].[Cl-].[H+].[H+] [BMY 7378] | 0.982 |
| CCN(CC)CC#CCOC(=O)C(O)(c1ccccc1)C1CCCCC1.[Cl-].[H+] (stereo not drawn) [Oxybutynin chloride] | 0.999 |
| CCc1c(C(=O)NCCc2ccc(N3CCCCC3)cc2)[nH]c2ccc(Cl)cc12 | 0.994 |
| COS(=O)(=O)[O-].C[N+]1(C)CCC(=C(c2ccccc2)c2ccccc2)CC1 [Diphemanil Methylsulfate] | 0.971 |

* * *

Test system: SKBR3-P
assay.procedure: area under growth-rate inhibition curve (AUC GRI) (dimensionless (GR-based AUC)); higher = less growth inhibition
recorded.conditions: exposure time: 72 h; concentrations: 0.1, 1, 10 uM
area under growth-rate inhibition curve: recorded values
reported.property: area under growth-rate inhibition curve

| compound | reported.property | assay.value |
| --- | --- | --- |
| CC(CCc1ccc(O)cc1)NCCc1ccc(O)c(O)c1.[Cl-].[H+] (stereo not drawn) [Dobutamine hydrochloride] | area under growth-rate inhibition curve | 1.03 |
| Cc1cc2c(s1)Nc1ccccc1N=C2N1CCN(C)CC1 [Olanzapine] | area under growth-rate inhibition curve | 0.97 |
| Cc1cccn2c(=O)c(-c3nnn[n-]3)cnc12.[K+] [Pemirolast Potassium] | area under growth-rate inhibition curve | 1.03 |
| CNCC[C@@H](Oc1ccccc1C)c1ccccc1.Cl [Atomoxetine HCl] | area under growth-rate inhibition curve | 1.01 |
| COc1ccccc1N1CCN(CCCNc2cc(=O)n(C)c(=O)n2C)CC1.[Cl-].[H+] [Urapidil HCl] | area under growth-rate inhibition curve | 1.04 |
| CCCCOc1ccc(C(=O)Nc2ccc(F)cc2F)cc1 | area under growth-rate inhibition curve | 1.01 |
| CC#C[C@]1(O)CC[C@H]2[C@@H]3CCC4=CC(=O)CCC4=C3[C@@H](c3ccc(N(C)C)cc3)C[C@@]21C [Mifepristone] | area under growth-rate inhibition curve | 0.962 |
| CN(C)CC(c1ccc(O)cc1)C1(O)CCCCC1.O=C(O)CCC(=O)O (stereo not drawn) [Desvenlafaxine Succinate] | area under growth-rate inhibition curve | 1.01 |
